- target: HLA-B*44:03
- protocolText: IEDB peptide-MHC binding, purified MHC/competitive/radioactivity; bounds were set here for any values at or beyond the usual limits of such assays
- conditionDescription: source organism: Bordetella pertussis
readoutLabel: IC50 (nM)

residuesequence=MEVMLRAVF quantityunit=nM numericresult=11.5
residuesequence=LSAALGADW quantityunit=nM numericresult=1170
residuesequence=AEGGATLGA quantityunit=nM numericresult=12000

* * *

- target: HLA-B*07:02
- protocolText: IEDB peptide-MHC binding, purified MHC/competitive/radioactivity; bounds were set here for any values at or beyond the usual limits of such assays
- conditionDescription: source organism: Bordetella pertussis
pIC50: −log10 of the molar value.
pIC50 values for the sequences below.
readoutLabel: pIC50

residuesequence=LAARGDGAL numericresult=5.20
residuesequence=QQLKQADRD numericresult=4.16

Data provenance: the Immune Epitope Database (IEDB)
